Just for reference, PubChem BioAssay AID1159580 is where these values come from.

assay_remarks: chemical genetic growth profiling, strain panel (AID 1159580);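 further: tested at 20 µM; growth read once vehicle control cultures reached saturation at 30 °C; 1 = growth at the plate median or of vehicle wells; lower values mean less growth of the strain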
setup_conditions: S. cerevisiae deletion strains, growth OD, locus YPL204W, strain HRR25, hits give low values
Screen size: about 5,500 compounds; about 2,000 (36%) were called active. Roughly 18% stayed inconclusive and do not appear here. This is one part of the list.
Threshold 0.9: normalized growth strictly smaller gives yes, otherwise no.

Given the entry COC(=O)C1=C(Nc2ccccc2NS(=O)(=O)c2ccc(C(F)(F)F)cc2Cl)CSC1 , would its reported normalized growth be below 0.9? no

Similarly, Cc1c(C)c(C)c(C(=O)c2ccc(N=Cc3cc(Cl)cc(Cl)c3O)cc2)c(C)c1C ? yes

Similarly, Cc1ccc(-c2csc(-c3ccncc3)n2)cc1 ? yes

Similarly, CC(=O)c1ccc(Cl)c(N=Cc2cc(Br)cc(Br)c2O)c1 ? yes

Similarly, CC(=O)c1ccc(Cl)c(N=Cc2cc(Cl)cc(Cl)c2O)c1 ? yes

Similarly, O=C1c2cccc3c(Sc4ccccc4)ccc(c23)C(=O)N1NCCO ? yes

Similarly, O=[N+]([O-])c1cccc(C2CC(c3ccccc3)=Nc3ccccc3S2)c1 (stereo unspecified) ? no

Similarly, CCOC(=O)c1ccc(Cl)c(N=Cc2cc(Cl)cc(Cl)c2O)c1 ? yes

====

assay_remarks: chemical genetic growth profiling, strain panel (AID 1159580);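 further: tested at 20 µM; growth read once vehicle control cultures reached saturation at 30 °C; 1 = growth at the plate median or of vehicle wells; lower values mean less growth of the strain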
setup_conditions: S. cerevisiae deletion strains, growth OD, locus YLR262C, strain YPT6 (second series), hits give low values
Among all 5,500 compounds or so, about 2,000 (36%) were called active. Roughly 18% stayed inconclusive and do not appear here. This is one part of the list.
outcome_measure: normalized growth
Give a plain numeric answer without units written out.

Please review the following examples before continuing.
[
  {
    "compound": "CC(C)CCCC(C)[C@H]1CCC2C3C(=O)C=C4C[C@@H](O)CC[C@]4(C)C3CC[C@@]21C (some centres not stated)",
    "outcome_measure": "normalized growth",
    "readout_value": 0.972
  },
  {
    "compound": "Nc1ccc(C(=O)O)cc1",
    "outcome_measure": "normalized growth",
    "readout_value": 1.02
  }
]

Query compound follows.
Query (compound): CC(C)NCC(O)COc1ccc(COCCOC(C)C)cc1 (configuration not stated) ; field requested: normalized growth 1.01

====

assay_remarks: chemical genetic growth profiling, strain panel (AID 1159580);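 further: tested at 20 µM; growth read once vehicle control cultures reached saturation at 30 °C; 1 = growth at the plate median or of vehicle wells; lower values mean less growth of the strain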
setup_conditions: S. cerevisiae deletion strains, growth OD, locus YHR142W, strain chs7, hits give low values
Screen size: about 5,500 compounds; about 2,000 (36%) were called active. Another 18% or so got no clear call; they are omitted. The list shows a part of the results.
Threshold 1: normalized growth strictly smaller gives t, otherwise f.

Given the entry CC(=O)Nc1ccc(S(=O)(=O)Nc2onc(C)c2C)cc1 , would its reported normalized growth be below 1? t

Similarly, Cc1cc(=O)oc2cc(O)cc(O)c12 ? t

Similarly, CC1(C)CC2C1CC[C@]1(C)CCC3C(C(=O)O)CC(=O)O[C@@]32C1 (stereo partly specified) ? f

Similarly, O=P1(NCCCl)OCCCN1CCCl (stereo unspecified) ? t

Similarly, CCC(C)C(=O)OC1[C@@H]2CC3=C4CC(=O)O[C@@H](c5ccoc5)[C@]4(C)CCC3[C@@](C)(C2=O)[C@@H](CC(=O)OC)C1(C)C (stereo partly specified) ? f

====

Entries annotated with measured normalized growth
assay_remarks: chemical genetic growth profiling, strain panel (AID 1159580);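 further: tested at 20 µM; growth read once vehicle control cultures reached saturation at 30 °C; 1 = growth at the plate median or of vehicle wells; lower values mean less growth of the strain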
setup_conditions: S. cerevisiae deletion strains, growth OD, locus YCL061C, strain MRC1 (second series), hits give low values
Among all 5,500 compounds or so, about 2,000 (36%) were called active. Another 18% or so got no clear call; they are omitted. The list shows a part of the results.
Give a plain numeric answer without units written out.

Please review the following examples before continuing.
[
  {
    "molecule": "Cc1c(C)c2c(c(C)c1O)CCC(C)(CN1CCN(c3cc(N4CCCC4)nc(N4CCCC4)n3)CC1)O2 (centres undefined)",
    "normalized growth": 0.993
  },
  {
    "molecule": "CCCN1CC(CSC)CC2c3cccc4[nH]cc(c34)CC21 (centres undefined)",
    "normalized growth": 0.998
  },
  {
    "molecule": "C=C/C(C)=C/[C@@]1(C)SC(=O)C(C)=C1O",
    "normalized growth": 1
  }
]

Query (molecule): CCN(CC)CCOCCOC(=O)C1(c2ccccc2)CCCC1 ; field requested: normalized growth 0.994

Similarly, NCCCNCCCCNCCCN ? 1.01

Similarly, CC(N)(C(=O)O)c1ccc(C(=O)O)cc1 (centres undefined) ? 1.01

Similarly, C/C(=C\c1ccc(C(=O)O)cc1)c1ccc2c(c1)C(C)(C)CCC2(C)C ? 1.02

Similarly, Cc1o[nH]c(=O)c1CC(N)C(=O)O (centres undefined) ? 1

Similarly, O=C1C(SCCO)=C(SCCO)C(=O)c2ccccc21 ? 0.982

Similarly, NCC(O)(CS(=O)(=O)O)c1ccc(Cl)cc1 (centres undefined) ? 0.995

Similarly, NC(=O)c1ncn(C2OC(CO)C(O)C2O)c1O (centres undefined) ? 1.01

Similarly, Cc1cccc(C)c1OCC(N)C(C)C (centres undefined) ? 1

Similarly, CN(C)CCCN1c2ccccc2Sc2ccc(C(F)(F)F)cc21 ? 0.987

Similarly, Cc1scc2c1N(C(=O)CN1CCN(C)CC1)c1ccccc1NC2=O ? 1

Similarly, O=P1(N(CCCl)CCCl)NCCCO1 (centres undefined) ? 1

Similarly, CNCCCC1c2ccccc2C=Cc2ccccc21 ? 1

Similarly, CCN(CC)CCOC(=O)C1(C2CCCCC2)CCCCC1 ? 0.998

Similarly, CC[N+](C)(C)c1cccc(O)c1 ? 1

Similarly, C[C@]12C=CC(=O)C=C1CC[C@@H]1C2=CC[C@]2(C)[C@@H](C(=O)CN3CCN(c4cc(N5CCCC5)nc(N5CCCC5)n4)CC3)CC[C@@H]12 ? 0.976

Similarly, CC[C@@H](C)[C@H]1O[C@]2(CC[C@@H]1C)C[C@@H]1C[C@@H](C/C=C(\C)[C@@H](O[C@H]3C[C@H](OC)[C@@H](O[C@H]4C[C@H](OC)[C@@H](O)[C@H](C)O4)[C@H](C)O3)[C@@H](C)/C=C/C=C3\CO[C@@H]4[C@H](O)C(C)=C[C@@H](C(=O)O1)[C@]34O)O2 ? 0.948

Similarly, CC1(C)CCC=[N+]1[O-] ? 1.01
